# tested-target: rat α4β2 nAChR subtype (Rattus norvegicus, UniProt P09483+P12390)
# Construct: Preparation of membranes from rat cortex; from tissue; host or cells: rat cerebral cortex membranes
# Sequence (P09483 31-630): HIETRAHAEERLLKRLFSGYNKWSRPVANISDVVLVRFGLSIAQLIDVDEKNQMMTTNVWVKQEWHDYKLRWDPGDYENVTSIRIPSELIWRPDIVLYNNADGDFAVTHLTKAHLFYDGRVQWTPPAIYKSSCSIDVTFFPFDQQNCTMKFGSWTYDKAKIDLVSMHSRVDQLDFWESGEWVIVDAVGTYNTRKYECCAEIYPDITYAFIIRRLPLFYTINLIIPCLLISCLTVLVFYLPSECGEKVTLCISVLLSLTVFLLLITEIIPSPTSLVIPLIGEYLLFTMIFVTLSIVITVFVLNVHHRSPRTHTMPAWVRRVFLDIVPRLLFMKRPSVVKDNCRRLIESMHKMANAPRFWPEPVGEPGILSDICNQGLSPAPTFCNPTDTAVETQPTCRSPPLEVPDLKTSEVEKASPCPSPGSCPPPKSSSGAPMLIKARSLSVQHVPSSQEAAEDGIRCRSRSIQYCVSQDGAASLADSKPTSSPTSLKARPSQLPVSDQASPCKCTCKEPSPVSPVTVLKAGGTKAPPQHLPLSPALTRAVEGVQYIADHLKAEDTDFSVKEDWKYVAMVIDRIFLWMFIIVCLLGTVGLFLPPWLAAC
# Sequence (P12390 25-500): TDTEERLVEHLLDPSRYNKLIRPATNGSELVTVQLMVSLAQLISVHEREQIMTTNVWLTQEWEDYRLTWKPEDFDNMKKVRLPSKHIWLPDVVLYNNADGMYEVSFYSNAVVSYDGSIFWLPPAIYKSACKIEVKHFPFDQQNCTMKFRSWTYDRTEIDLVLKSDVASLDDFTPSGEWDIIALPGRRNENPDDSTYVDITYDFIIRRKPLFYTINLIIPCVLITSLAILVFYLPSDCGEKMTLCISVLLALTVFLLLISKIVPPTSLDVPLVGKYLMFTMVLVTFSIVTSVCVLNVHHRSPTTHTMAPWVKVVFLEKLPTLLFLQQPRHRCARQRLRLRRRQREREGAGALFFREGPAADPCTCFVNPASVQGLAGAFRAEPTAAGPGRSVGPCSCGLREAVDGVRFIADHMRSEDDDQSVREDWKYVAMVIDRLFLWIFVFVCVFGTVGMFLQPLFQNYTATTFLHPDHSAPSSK
# run-description: Radioligand binding ([3H]nicotine) at rat α4β2 nAChR, rat cortex membranes
# measurement-context: rat cortex membranes, 5 nM [3H]nicotine; read-out: Rat α4β2 Ki
Decision: Ki beneath 300 nM gives 1; Ki meeting or exceeding 300 nM gives 0.

1) O=C(C1CC=CC1)N1CC2CNCC1C2 (centres unmarked); 1

is_below(Ki, 300 nM) for O=C(C1CCOC1)N1C[C@@H]2CN[C@@H](C2)C1 (some centres unmarked) ?
1

# check: Ki < 300 nM for CC(=O)N1C[C@@H]2CN[C@@H](C2)C1
0

Just wondering, is Ki of O=C(C1CC=CC1)N1C[C@@H]2CN[C@@H](C2)C1 below 300 nM?
0

Regarding O=C(CC(F)(F)F)N1C[C@@H]2CN[C@@H](C2)C1 , kindly confirm whether its Ki is beneath 300 nM.
1

Please check: Ki for COCCOC(=O)N1C[C@@H]2CN[C@@H](C2)C1 , strictly under 300 nM or not?
0

Please determine if CC(C)OC(=O)N1C[C@@H]2CN[C@@H](C2)C1 is below 300 nM in terms of Ki.
0

Check if Ki falls below 300 nM for CC(C)S(=O)(=O)N1C[C@@H]2CN[C@@H](C2)C1 .
0
